- system: Signal transducer and activator of transcription 3 [702-738,740-752] (Homo sapiens, UniProt P40763)
- Construct: 702-738,740-752
- Sequence (P40763 as listed by the source): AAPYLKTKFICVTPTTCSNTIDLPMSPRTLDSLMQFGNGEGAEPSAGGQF
- protocol_text: STAT3 activation reporter response, dose response, cell-based (AID 1398)
pIC50: −log10 of the molar value.
readout_kind: pIC50

# molecule, readout_kind, data_value
rows = [
    ("COc1cc(NC(=O)c2cc(C3CC3)on2)c(OC)cc1Cl [MLS000522376]", "pIC50", "< 7.12"),
    ("Cc1nonc1CC(=O)N1CCc2c([nH]c3ccccc23)C1c1ccccc1F (stereo not given)", "pIC50", "< 5.69"),
    ("COc1cc(NC(=O)c2cc(C(C)C)on2)c(OC)cc1Cl [MLS000520019]", "pIC50", "< 6.64"),
    ("Cc1cccc(NC(=O)c2cc([N+](=O)[O-])ccc2Cl)c1O", "pIC50", "< 5.21"),
    ("COC(=O)c1sccc1NC(=O)c1cc2c(s1)CCCC2 [MLS000051746]", "pIC50", "< 5.69"),
]

###

- system: Signal transducer and activator of transcription 3 [702-738,740-752] (Homo sapiens, UniProt P40763)
- Construct: 702-738,740-752
- protocol_text: STAT3 activation reporter response, dose response, cell-based (AID 1398)

# molecule, IC50
records = [
    ("COc1ccccc1NC(=O)c1[nH]c(C)c(C(C)=O)c1C [SMR000066913]", "> 0.0255 µM"),
    ("Nc1nc(-c2ccc(Cl)cc2)nn1C(=O)c1cccs1 [MLS000706198]", "> 0.688 µM"),
    ("CCCSc1nnc(Sc2nnnn2-c2ccccc2)s1", "> 6.19 µM"),
    ("COC(=O)C(NC=O)C(O)(Cc1ccccc1)C(F)(F)F (stereo not given)", "> 0.688 µM"),
    ("Cn1c(CNc2ccccc2O)nc2ccccc21", "> 0.00849 µM"),
    ("Cn1nc(-c2ccc(Cl)cc2)c2cc(C(=O)NCCCN3CCCC3)sc21", "> 6.19 µM"),
    ("CC(=O)Nc1c(Cl)n(C(C)=O)c2ccccc12 [MLS000104263]", "> 0.076 µM"),
    ("Cc1[nH]n(-c2ccccc2)c(=O)c1C=C1C(=O)NC(=O)NC1=O", "> 55.7 µM"),
    ("COc1ccccc1C(=O)Nc1cc(Cl)ccc1O [MLS000078111]", "> 2.06 µM"),
    ("CCCc1cc(C(=O)Nc2cc(OC)c(Cl)cc2OC)no1 [MLS000116379]", "> 0.229 µM"),
]
